Hey, just so you know, these numbers are from ChEMBL document CHEMBL5154908.

Study target: Mitogen-activated protein kinase 14 (Homo sapiens, UniProt Q16539)
Sequence (Q16539 whole entry): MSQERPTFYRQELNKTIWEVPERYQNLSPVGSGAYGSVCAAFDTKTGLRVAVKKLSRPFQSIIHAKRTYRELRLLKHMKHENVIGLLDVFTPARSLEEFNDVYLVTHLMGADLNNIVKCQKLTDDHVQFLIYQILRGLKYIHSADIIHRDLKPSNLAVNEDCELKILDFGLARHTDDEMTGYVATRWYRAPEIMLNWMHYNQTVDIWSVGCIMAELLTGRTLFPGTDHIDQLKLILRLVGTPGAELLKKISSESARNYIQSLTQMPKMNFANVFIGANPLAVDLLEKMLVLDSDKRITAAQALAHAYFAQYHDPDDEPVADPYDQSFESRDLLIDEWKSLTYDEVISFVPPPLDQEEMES
Assay method text: Inhibition of human recombinant full length GST-tagged p38alpha expressed in Escherichia coli preincubated for 2 hrs followed by ATP addition and measured after 1 hr by Alpha screen assay
# pIC50 values compiled below
Here pIC50 is given on a logarithmic scale as minus log10 of the concentration in mol/L.

• C[C@H]1CCCCN1c1nnc2ccc(O[C@@H]3CC[C@H](NC(=O)Nc4cc(C(C)(C)C)nn4-c4cnnc(OCCN(C)C)c4)c4ccccc43)cn12 = 9.52
• Cc1ccc(-n2nc(C(C)(C)C)cc2NC(=O)N[C@H]2CC[C@@H](Oc3ccc4nnc(N5CCCCC5)n4c3)c3ccccc32)cc1 = 9.52
• Cc1ccc(-n2nc(C(C)(C)C)cc2NC(=O)N[C@H]2CC[C@@H](Oc3ccc4nnc(C5CCCCC5)n4c3)c3ccccc32)cc1 = 9.52
• C[C@H]1CCCCN1c1nnc2ccc(O[C@@H]3CC[C@H](NC(=O)Nc4cc(C(C)(C)C)nn4-c4ccn(CCN(C)C)n4)c4ccccc43)cn12 = 9.70
• C[C@H]1CCCCN1c1nnc2ccc(O[C@@H]3CC[C@H](NC(=O)Nc4cc(C(C)(C)C)nn4-c4cccc(OCCN(C)C)n4)c4ccccc43)cn12 = 8.70

Request: Please tell me: pIC50 of C[C@@H]1CCCCN1c1nnc2ccc(O[C@@H]3CC[C@H](NC(=O)Nc4cc(C(C)(C)C)nn4-c4cccc(OCCN(C)C)c4)c4ccccc43)cn12 , system Mitogen-activated protein kinase 14 (Homo sapiens, UniProt Q16539)?
Response: 9.70

====

Study target: Mitogen-activated protein kinase 14 (Homo sapiens, UniProt Q16539)
Assay method text: Inhibition of human recombinant full length GST-tagged p38alpha expressed in Escherichia coli preincubated for 2 hrs followed by ATP addition and measured after 1 hr by Alpha screen assay
Assay readout: IC50
A bare number is not enough; add the unit after it.

Request: Fill in: IC50 of CC(C)(C)c1cc(NC(=O)N[C@H]2CC[C@@H](Oc3ccc4nnc(N5CCCCC5)n4c3)c3ccccc32)n(-c2cccc(CO)c2)n1 is ___
Response: 0.6 nM

Request: Fill in: IC50 of CN(C)CCOc1cccc(-n2nc(C(C)(C)C)cc2NC(=O)N[C@H]2CC[C@@H](Oc3ccc4nnc(N5CCCCC5)n4c3)c3ccccc32)c1 is ___
Response: 0.6 nM

Request: Fill in: IC50 of CN(C)CCOc1cc(-n2nc(C(C)(C)C)cc2NC(=O)N[C@H]2CC[C@@H](Oc3ccc4nnc(N5CCCCC5)n4c3)c3ccccc32)ccc1Cl is ___
Response: 0.2 nM

Request: Fill in: IC50 of CC(C)c1nnc2ccc(O[C@@H]3CC[C@H](NC(=O)Nc4cc(C(C)(C)C)nn4-c4cccc(OCCO)c4)c4ccccc43)cn12 is ___
Response: 0.4 nM

====

Study target: Mitogen-activated protein kinase 14 (Homo sapiens)
Assay method text: Inhibition of human recombinant full length GST-tagged p38alpha expressed in Escherichia coli preincubated for 2 hrs followed by ATP addition and measured after 1 hr by Alpha screen assay
Label 1 when IC50 is strictly below 0.3 nM; at or above that, label 0.

• Cc1ccc(-n2nc(C(C)(C)C)cc2NC(=O)N[C@H]2CC[C@@H](Oc3ccc4nnc(N5CCN(C)CC5)n4c3)c3ccccc32)cc1 = 0
• Cc1ccc(-n2nc(C(C)(C)C)cc2NC(=O)N[C@H]2CC[C@H](Oc3ccc4nnc(C(C)C)n4c3)CC2)cc1 = 0

Request: Consider C[C@H]1CCCCC1c1nnc2ccc(O[C@@H]3CC[C@H](NC(=O)Nc4cc(C(C)(C)C)nn4-c4cccc(OCCN5CCOCC5)c4)c4ccccc43)cn12 (some centres not stated) . Does its IC50 lie strictly below 0.3 nM?
Response: 0

Request: Consider Cc1ccc(-n2nc(C(C)(C)C)cc2NC(=O)N[C@H]2CC[C@@H](Oc3ccc4nnc(C(C)C)n4c3)c3ccccc32)cc1 . Does its IC50 lie strictly below 0.3 nM?
Response: 1

====

Study target: Mitogen-activated protein kinase 14 (Homo sapiens)
Assay method text: Inhibition of human recombinant full length GST-tagged p38alpha expressed in Escherichia coli preincubated for 2 hrs followed by ATP addition and measured after 1 hr by Alpha screen assay
Assay readout: IC50 (nM)
Number only, in nM; omit the unit.

Solved entries (count: 2):
• C[C@H]1CCCCN1c1nnc2ccc(O[C@@H]3CC[C@H](NC(=O)Nc4cc(C(C)(C)C)nn4-c4cnn(CCN5CCOCC5)c4)c4ccccc43)cn12 = 0.5
• CC(C)(C)c1cc(NC(=O)N[C@H]2CC[C@@H](Oc3ccc4nnc(N5CCCCC5)n4c3)c3ccccc32)n(-c2cccc(CN3CCCCC3)c2)n1 = 1.3

Request: Fill in: IC50 of Cc1ccc(-n2nc(C(C)(C)C)cc2NC(=O)N[C@H]2CC[C@@H](Oc3ccc4nnc(N5CCC(CO)CC5)n4c3)c3ccccc32)cc1 is ___
Response: 0.3

====

Assay method text: Drug uptake in Sprague-Dawley rat lung homogenate at 0.03 mg/kg, IT measured after 7 hrs by LC/MS/MS analysis
Format: ADME, organism-based
Condition context: in vivo, other
# Drug uptake values compiled below
A bare number is not enough; add the unit after it.

Solved entries (count: 5):
• Cc1ccc(-n2nc(C(C)(C)C)cc2NC(=O)N[C@H]2CC[C@@H](Oc3ccc4nnc(N5CCCCC5)n4c3)c3ccccc32)cc1 = 21%
• Cc1ccc(-n2nc(C(C)(C)C)cc2NC(=O)N[C@H]2CC[C@@H](Oc3ccc4nnc(C(C)C)n4c3)c3ccccc32)cc1 = 8.4%
• C[C@H]1CCCCN1c1nnc2ccc(O[C@@H]3CC[C@H](NC(=O)Nc4cc(C(C)(C)C)nn4-c4cnn(CCN(C)C)c4)c4ccccc43)cn12 = 7.2%
• Cc1ccc(-n2nc(C(C)(C)C)cc2NC(=O)N[C@H]2CC[C@@H](Oc3ccc4nnc(N5CCC(CO)CC5)n4c3)c3ccccc32)cc1 = 99%
• C[C@H]1CCCCN1c1nnc2ccc(O[C@@H]3CC[C@H](NC(=O)Nc4cc(C(C)(C)C)nn4-c4cccc(OCCN(C)C)c4)c4ccccc43)cn12 = 8.4%

Now for a further compound.
Request: Fill in: Drug uptake of C[C@@H]1CCC[C@H](C)N1c1nnc2ccc(O[C@@H]3CC[C@H](NC(=O)Nc4cc(C(C)(C)C)nn4-c4cnn(CCN(C)C)c4)c4ccccc43)cn12 is ___
Response: 10%

====

Assay method text: Cmax in Sprague-Dawley rat lung homogenate at 0.03 mg/kg, IT measured after 0.8 hrs by LC/MS/MS analysis
Assay type: ADME, organism-based
Design: time 0.8 hrs, dose 0.03 mg/kg, route it
# Cmax values compiled below

Request: Fill in: Cmax of Cc1ccc(-n2nc(C(C)(C)C)cc2NC(=O)N[C@H]2CC[C@@H](Oc3ccc4nnc(C(C)C)n4c3)c3ccccc32)cc1 is ___
Response: 1080 nM

Request: Fill in: Cmax of C[C@H]1CCCCN1c1nnc2ccc(O[C@@H]3CC[C@H](NC(=O)Nc4cc(C(C)(C)C)nn4-c4cccc(OCCN(C)C)c4)c4ccccc43)cn12 is ___
Response: 2700 nM

Request: Fill in: Cmax of Cc1ccc(-n2nc(C(C)(C)C)cc2NC(=O)N[C@H]2CC[C@@H](Oc3ccc4nnc(N5CCC(CO)CC5)n4c3)c3ccccc32)cc1 is ___
Response: 5070 nM

Request: Fill in: Cmax of Cc1ccc(-n2nc(C(C)(C)C)cc2NC(=O)N[C@H]2CC[C@@H](Oc3ccc4nnc(N5CCCCC5)n4c3)c3ccccc32)cc1 is ___
Response: 3180 nM

====

Study target: Mitogen-activated protein kinase 12 (Homo sapiens, UniProt P53778)
Sequence (P53778 whole entry): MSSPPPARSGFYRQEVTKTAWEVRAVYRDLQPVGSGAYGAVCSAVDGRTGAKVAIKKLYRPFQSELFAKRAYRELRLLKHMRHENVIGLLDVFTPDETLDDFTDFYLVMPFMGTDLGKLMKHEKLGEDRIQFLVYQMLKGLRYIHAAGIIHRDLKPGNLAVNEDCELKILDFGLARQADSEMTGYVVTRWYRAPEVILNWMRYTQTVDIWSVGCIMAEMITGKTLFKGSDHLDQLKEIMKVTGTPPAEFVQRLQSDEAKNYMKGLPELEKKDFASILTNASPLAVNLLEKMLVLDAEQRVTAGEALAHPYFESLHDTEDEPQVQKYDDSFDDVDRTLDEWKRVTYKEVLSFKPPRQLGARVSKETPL
Assay method text: Inhibition of recombinant human full length His-tagged p38gamma expressed in baculovirus expression system preincubated for 2 hrs followed by ATP addition and measured after 1 hr by Alpha screen assay
pIC50: −log10 of the molar value.
Label YES when pIC50 >= 7; otherwise NO.

The following molecules have reported results that may help.
* C[C@@H]1CCC[C@H](C)N1c1nnc2ccc(O[C@@H]3CC[C@H](NC(=O)Nc4cc(C(C)(C)C)nn4-c4cnn(CCN(C)C)c4)c4ccccc43)cn12 | NO
* Cc1ccc(-n2nc(C(C)(C)C)cc2NC(=O)N[C@H]2CC[C@@H](Oc3ccc4nnc(N5CCCCC5)n4c3)c3ccccc32)cc1 | YES
* C[C@H]1CCCCN1c1nnc2ccc(O[C@@H]3CC[C@H](NC(=O)Nc4cc(C(C)(C)C)nn4-c4cccc(OCCN(C)C)c4)c4ccccc43)cn12 | NO

Kindly review the next molecule as well.
Request: Is the recorded value of pIC50 equal to or greater than 7 for this molecule? Cc1ccc(-n2nc(C(C)(C)C)cc2NC(=O)N[C@H]2CC[C@@H](Oc3ccc4nnc(N5CCC(CO)CC5)n4c3)c3ccccc32)cc1
Response: YES

====

Assay method text: Cmax in Sprague-Dawley rat lung homogenate at 0.3 mg/kg, IT measured after 0.8 hrs by LC/MS/MS analysis
Type: ADME, organism-based
Set-up: time 0.8 hrs, dose 0.3 mg/kg, route it
Assay readout: Cmax (µM)
Number only, in µM; omit the unit.

- C[C@H]1CCCCN1c1nnc2ccc(O[C@@H]3CC[C@H](NC(=O)Nc4cc(C(C)(C)C)nn4-c4cnn(CCN(C)C)c4)c4ccccc43)cn12: 3.04

Now for a further compound.
Request: Fill in: Cmax of C[C@@H]1CCC[C@H](C)N1c1nnc2ccc(O[C@@H]3CC[C@H](NC(=O)Nc4cc(C(C)(C)C)nn4-c4cnn(CCN(C)C)c4)c4ccccc43)cn12 is ___
Response: 6.36
